# Method Description: Single dose pharmacokinetic study in beagle dog
# Assay type: in vivo
# Experimental Context: male, beagle, dog, plasma, iv, 0.5 mg/kg, male beagle dog, iv 0.5 mg/kg, 24 hr; read-out: Plasma level, Mean
Quantity Kind: concentration at 24 h (ng/mL)
Quick note: give the figure in ng/mL, leave out the unit.

If you can, please state the reported concentration at 24 h value of Cc1cc(C(=O)O)nc(N2C[C@H]3C[C@@H](c4ccccc4C(F)(F)F)C[C@H]3C2)n1 [BPN-14136] .
175

----------
# Method Description: Single dose pharmacokinetic study in cynomolgus monkey
# Format: in vivo
# Experimental Context: male, cynomolgus monkey, plasma, iv; Cyno, 1.0 mg kg^−1 i.v., mean ± SD, n=3; read-out: T1/2, apparent terminal half-life (converted)
Quantity Kind: half-life (h)
Quick reminder: number only, in h, skip the unit.

Need half-life, item Cc1cc(C(=O)O)nc(N2C[C@H]3C[C@@H](c4ccccc4C(F)(F)F)C[C@H]3C2)n1 [BPN-14136]
15.6

----------
# Method Description: Single dose pharmacokinetic study in cynomolgus monkey
# Type: in vivo
# Experimental Context: male, cynomolgus monkey, plasma, iv, 1 mg/kg, non-human primate, iv 1.0 mg/kg, 4 hr; read-out: Plasma level, Mean
Quantity Kind: concentration at 4 hr
Answer with the figure and its unit, nothing else.

Consider the compound shown here: Cc1cc(C(=O)O)nc(N2C[C@H]3C[C@@H](c4ccccc4C(F)(F)F)C[C@H]3C2)n1 [BPN-14136] What is its recorded concentration at 4 hr?
7.08 µg/mL

----------
# Method Description: Metabolic stability in human liver microsomes
# Type: in vitro ADME
# Experimental Context: both sexes, pH 7.4, 1 mg/mL, read-out: Microsomal Stability (% Remaining at 30 min)
Quantity Kind: remaining at 0.5 h, 1 μM (%)
Write the number in % without appending the unit.

Entry `Cc1cc(C(=O)O)nc(N2C[C@H]3C[C@@H](c4ccccc4C(F)(F)F)C[C@H]3C2)n1` has what remaining at 0.5 h, 1 μM?
94

----------
# Method Description: Single dose pharmacokinetic study in beagle dog
# Format: in vivo
# Experimental Context: male, beagle, dog, plasma, iv, 0.5 mg/kg, male beagle dog, iv 0.5 mg/kg, 2 hr; read-out: Plasma level, Mean
Quantity Kind: concentration at 2 h (ng/mL)
# value in ng/mL; strip the unit string

Need concentration at 2 h of `Cc1cc(C(=O)O)nc(N2C[C@H]3C[C@@H](c4ccccc4C(F)(F)F)C[C@H]3C2)n1` , thanks.
1030

----------
# Method Description: Single dose pharmacokinetic study in beagle dog
# Format: in vivo
# Experimental Context: male, beagle, dog, plasma, iv, 0.5 mg/kg, male beagle dog, iv 0.5 mg/kg, 0.25 hr; read-out: Plasma level, Individual animals
Quantity Kind: concentration at 0.25 h (ng/mL)
Field format: number, assumed ng/mL, no unit text.

Report concentration at 0.25 h for `Cc1cc(C(=O)O)nc(N2C[C@H]3C[C@@H](c4ccccc4C(F)(F)F)C[C@H]3C2)n1` please.
2000

----------
# Method Description: Single dose pharmacokinetic study in cynomolgus monkey
# Format: in vivo
# Experimental Context: male, cynomolgus monkey, plasma, po, 5 mg/kg, Cyno, 5.0 mg kg^−1 p.o., mean ± SD, n=3
Quantity Kind: AUC(0-inf) (µg·h/mL)
State just the number; it will be interpreted in µg·h/mL.

GET /values?readout=AUC(0-inf)&item= `Cc1cc(C(=O)O)nc(N2C[C@H]3C[C@@H](c4ccccc4C(F)(F)F)C[C@H]3C2)n1`
676
